compounds and their reported EC50
# Tested on: Fusarium avenaceum
# experiment.summary: Antifungal activity against Fusarium avenaceum VIAM MA1512 assessed as inhibition of spore germination by microdilution technique linked with digital image analysis
# Type: functional, organism-based
State just the number; it will be interpreted in µg/mL.

Consider the following illustrative entries.
- COc1ccc([C@@]23Oc4cc(OC)cc(OC)c4[C@]2(O)[C@H](O)C[C@H]3c2ccccc2)cc1 [ROCAGLAOL]: 0.4
- COc1ccc([C@@]23Oc4cc(OC)cc(OC)c4[C@]2(O)[C@H](O)[C@H](C(=O)N(C)C)[C@H]3c2ccccc2)cc1 [ROCAGLAMIDE]: 8
- CN(CC[C@H](N)CC(=O)N[C@H]1C=C[C@H](n2ccc(N)nc2=O)O[C@@H]1C(=O)O)C(=N)N [BLASTICIDIN_S]: 0.4

So what does the record say about EC50 for COC(=O)[C@H]1[C@@H](O)[C@@]2(O)c3c(OC)cc(OC)cc3O[C@@]2(c2ccc(OC)cc2)[C@@H]1c1ccccc1 [AGLAFOLIN] ?
1.6

So what does the record say about EC50 for COC(=O)[C@H]1[C@@H](O)[C@@]2(O)c3c(cc4c(c3OC)OCO4)O[C@@]2(c2ccc(OC)cc2)[C@@H]1c1ccccc1 [PANNELLIN] ?
11

###

# Tested on: Pyricularia grisea
# experiment.summary: Antifungal activity against Magnaporthe grisea VIAM MA1627 assessed as inhibition of spore germination by microdilution technique linked with digital image analysis
# Format: functional, organism-based
test.readout: EC90

So what does the record say about EC90 for COC(=O)[C@@H]1[C@@]2(O)c3c(cc4c(c3OC)OCO4)O[C@]1(c1ccc(OC)cc1)[C@H](c1ccccc1)[C@H]2C(=O)N1CCCC1NC(=O)C(C)C (stereo partly specified) [THAPSAKINACETATE A] ?
> 200 µg/mL

So what does the record say about EC90 for COc1ccc([C@]2(C(=O)O)Oc3cc4c(c(OC)c3C(=O)[C@H](C(=O)N3CCCC3NC(=O)C(C)C)[C@H]2c2ccccc2)OCO4)cc1 (stereo partly specified) [THAPOXEPINE A] ?
> 200 µg/mL

So what does the record say about EC90 for CN(CC[C@H](N)CC(=O)N[C@H]1C=C[C@H](n2ccc(N)nc2=O)O[C@@H]1C(=O)O)C(=N)N ?
> 200 µg/mL

###

# System: Pyricularia grisea
# experiment.summary: Antifungal activity against Magnaporthe grisea VIAM MA1627 assessed as inhibition of spore germination by microdilution technique linked with digital image analysis
# Assay type: functional, organism-based
test.readout: log10(EC90) (log10 of the value in µg/mL)
The base-10 logarithm of EC90, taken with EC90 in µg/mL, is what appears here.

Consider the following illustrative entries.
* COc1ccc([C@@]23Oc4cc(OC)cc(OC)c4[C@]2(O)[C@H](O)[C@H](C(=O)N(C)C)[C@H]3c2ccccc2)cc1 [ROCAGLAMIDE] | 1.54
* COC(=O)[C@H]1[C@@H](O)[C@@]2(O)c3c(cc4c(c3OC)OCO4)O[C@@]2(c2ccc(OC)cc2)[C@@H]1c1ccccc1 | 2.23
* CNC(=O)[C@H]1[C@@H](O)[C@@]2(O)c3c(OC)cc(OC)cc3O[C@@]2(c2ccc(OC)cc2)[C@@H]1c1ccccc1 [DESMETHYL ROCAGLAMIDE] | 2.16

So what does the record say about log10(EC90) for CCCCNC(=O)n1c(NC(=O)OC)nc2ccccc21 ?
1.92

So what does the record say about log10(EC90) for COC(=O)[C@H]1[C@@H](O)[C@@]2(O)c3c(OC)cc(OC)cc3O[C@@]2(c2ccc(OC)cc2)[C@@H]1c1ccccc1 ?
0.90

###

# Tested on: Pyricularia grisea
# experiment.summary: Antifungal activity against Magnaporthe grisea VIAM MA1627 assessed as inhibition of spore germination by microdilution technique linked with digital image analysis
# Type: functional, organism-based
compounds and their reported MIC
State just the number; it will be interpreted in µg/mL.

Consider the following illustrative entries.
• CCCCNC(=O)n1c(NC(=O)OC)nc2ccccc21 = 200
• COC(=O)[C@H]1[C@@H](O)[C@@]2(O)c3c(cc4c(c3OC)OCO4)O[C@@]2(c2ccc(OC)cc2)[C@@H]1c1ccccc1 = 50
• CNC(=O)[C@H]1[C@@H](O)[C@@]2(O)c3c(OC)cc(OC)cc3O[C@@]2(c2ccc(OC)cc2)[C@@H]1c1ccccc1 [DESMETHYL ROCAGLAMIDE] = 100
• COc1ccc([C@@]23Oc4cc(OC)cc(OC)c4[C@]2(O)[C@H](O)C[C@H]3c2ccccc2)cc1 = 1.6

So what does the record say about MIC for COc1ccc([C@@]23Oc4cc(OC)cc(OC)c4[C@]2(O)[C@H](O)[C@H](C(=O)N(C)C)[C@H]3c2ccccc2)cc1 [ROCAGLAMIDE] ?
25

###

# Test system: Pyricularia grisea
# experiment.summary: Antifungal activity against Magnaporthe grisea VIAM MA1627 assessed as inhibition of spore germination by microdilution technique linked with digital image analysis
# Type: functional, organism-based
test.readout: MIC (µg/mL)
State just the number; it will be interpreted in µg/mL.

- COc1ccc([C@@]23Oc4cc5c(c(OC)c4[C@]2(O)[C@H](O)[C@H](C(=O)N(C)C)[C@H]3c2ccccc2)OCO5)cc1: 100

So what does the record say about MIC for COC(=O)[C@H]1[C@@H](O)[C@@]2(O)c3c(OC)cc(OC)cc3O[C@@]2(c2ccc(OC)cc2)[C@@H]1c1ccccc1 ?
3

###

# System: Alternaria citri
# experiment.summary: Antifungal activity against Alternaria citri CBS 192.81; VIAM MA1628 assessed as inhibition of spore germination by microdilution technique linked with digital image analysis
# Format: functional, organism-based
test.readout: EC50 (µg/mL)
State just the number; it will be interpreted in µg/mL.

- COC(=O)[C@H]1[C@@H](O)[C@@]2(O)c3c(OC)cc(OC)cc3O[C@@]2(c2ccc(OC)cc2)[C@@H]1c1ccccc1: 44
- CN(CC[C@H](N)CC(=O)N[C@H]1C=C[C@H](n2ccc(N)nc2=O)O[C@@H]1C(=O)O)C(=N)N: 6

We next turn to a different compound, shown below.
So what does the record say about EC50 for COc1ccc([C@@]23Oc4cc(OC)cc(OC)c4[C@]2(O)[C@H](O)C[C@H]3c2ccccc2)cc1 ?
6

###

# System: Alternaria citri
# experiment.summary: Antifungal activity against Alternaria citri CBS 192.81; VIAM MA1628 assessed as inhibition of spore germination by microdilution technique linked with digital image analysis
# Format: functional, organism-based
molecules and their reported EC90

• CCCCNC(=O)n1c(NC(=O)OC)nc2ccccc21 = > 200 mg/L
• COc1ccc([C@@]23Oc4cc(OC)cc(OC)c4[C@]2(O)[C@H](O)C[C@H]3c2ccccc2)cc1 = 24 mg/L
• CN(CC[C@H](N)CC(=O)N[C@H]1C=C[C@H](n2ccc(N)nc2=O)O[C@@H]1C(=O)O)C(=N)N = 53 mg/L
• COC(=O)[C@H]1[C@@H](O)[C@@]2(O)c3c(OC)cc(OC)cc3O[C@@]2(c2ccc(OC)cc2)[C@@H]1c1ccccc1 = 171 mg/L
• COc1ccc([C@@]23Oc4cc(OC)cc(OC)c4[C@]2(O)[C@H](O)[C@H](C(=O)N(C)C)[C@H]3c2ccccc2)cc1 [ROCAGLAMIDE] = > 200 mg/L

We next turn to a different molecule, shown below.
So what does the record say about EC90 for COC(=O)[C@H]1[C@@H](O)[C@@]2(O)c3c(cc4c(c3OC)OCO4)O[C@@]2(c2ccc(OC)cc2)[C@@H]1c1ccccc1 ?
> 200 mg/L

###

# System: Pyricularia grisea
# experiment.summary: Antifungal activity against Magnaporthe grisea VIAM MA1627 assessed as inhibition of spore germination by microdilution technique linked with digital image analysis
# Type: functional, organism-based
molecules and their reported EC90

Consider the following illustrative entries.
• COc1ccc([C@@]23Oc4cc5c(c(OC)c4[C@]2(O)[C@H](O)[C@H](C(=O)N(C)C)[C@H]3c2ccccc2)OCO5)cc1 [AGLAROXIN A] = > 200 µg/mL
• COc1ccc([C@@]23Oc4cc(OC)cc(OC)c4[C@]2(O)[C@H](O)C[C@H]3c2ccccc2)cc1 [ROCAGLAOL] = 0.3 µg/mL

We next turn to a different molecule, shown below.
Give Pyricularia grisea EC90 for COc1ccc(C2C(=O)Oc3cc4c(c(OC)c32)OCO4)cc1 (stereo not drawn) [AGLALACTONE]
> 200 µg/mL

###

compounds and their reported EC50
# Test system: Alternaria citri
# experiment.summary: Antifungal activity against Alternaria citri CBS 192.81; VIAM MA1628 assessed as inhibition of spore germination by microdilution technique linked with digital image analysis
# Format: functional, organism-based

• COc1ccc([C@@]23Oc4cc(OC)cc(OC)c4[C@]2(O)[C@H](O)[C@H](C(=O)N(C)C)[C@H]3c2ccccc2)cc1 [ROCAGLAMIDE] = > 200 µg/mL
• COC(=O)[C@H]1[C@@H](O)[C@@]2(O)c3c(cc4c(c3OC)OCO4)O[C@@]2(c2ccc(OC)cc2)[C@@H]1c1ccccc1 = > 200 µg/mL

So what does the record say about EC50 for CCCCNC(=O)n1c(NC(=O)OC)nc2ccccc21 ?
> 200 µg/mL
